- subject-of-test: BRAF V600E (Homo sapiens, UniProt P15056, V600E)
- Construct: endogenous C-terminal HiBiT fusion tag on BRAF V600E allele; endogenous in cells; host or cells: A375 clone 1F10 (CRISPR-Cas9 knock-in of the HiBiT tag; parental A375 from ATCC)
- Sequence (P15056 whole entry V600E, the tested form may be a part): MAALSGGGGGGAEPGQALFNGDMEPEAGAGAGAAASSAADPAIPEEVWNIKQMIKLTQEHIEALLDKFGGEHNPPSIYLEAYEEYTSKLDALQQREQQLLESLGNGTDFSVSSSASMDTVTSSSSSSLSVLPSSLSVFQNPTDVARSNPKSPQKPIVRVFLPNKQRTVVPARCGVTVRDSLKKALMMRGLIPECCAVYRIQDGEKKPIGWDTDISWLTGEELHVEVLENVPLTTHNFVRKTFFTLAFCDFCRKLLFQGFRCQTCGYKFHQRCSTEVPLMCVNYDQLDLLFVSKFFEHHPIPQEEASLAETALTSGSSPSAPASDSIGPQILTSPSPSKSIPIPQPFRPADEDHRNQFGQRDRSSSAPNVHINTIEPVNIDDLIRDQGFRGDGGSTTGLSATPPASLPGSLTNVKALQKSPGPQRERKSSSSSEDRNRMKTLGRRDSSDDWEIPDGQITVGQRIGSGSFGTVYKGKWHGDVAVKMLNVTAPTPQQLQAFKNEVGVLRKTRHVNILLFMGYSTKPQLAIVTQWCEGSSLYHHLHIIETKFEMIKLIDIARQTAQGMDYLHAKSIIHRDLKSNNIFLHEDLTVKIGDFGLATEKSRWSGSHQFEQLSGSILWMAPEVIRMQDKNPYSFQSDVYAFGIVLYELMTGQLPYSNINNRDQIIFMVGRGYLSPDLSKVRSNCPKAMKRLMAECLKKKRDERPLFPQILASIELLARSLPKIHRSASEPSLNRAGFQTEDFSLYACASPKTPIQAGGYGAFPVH
- test-description: BRAF HiBiT degradation assay, C-terminal HiBiT-tagged BRAF V600E A375 cells (clone 1F10), Nano-Glo HiBiT Lytic assay
- Assay type: cell-based
- assay-conditions: A-375; A375 (BRAF V600E); percentage protein degraded at maximal compound effect relative to DMSO
metric: Dmax

Solved cases below.
Please look up its Dmax: CCCS(=O)(=O)Nc1cccc(-c2nc(C(C)(C)C)sc2-c2ccnc(NC3CC4(C3)CN(C(=O)C3(F)CCN(CC5CCN(c6ccc(C7CCC(=O)NC7=O)cc6)CC5)CC3)C4)n2)c1F (racemic) [Compound 141]
> 70%

What about CCCS(=O)(=O)Nc1cccc(-c2nc(C)sc2-c2ccnc(Nc3ccc(N4CCN(CC5(F)CCN(c6ccc(C7CCC(=O)NC7=O)cc6)CC5)CC4)cc3)n2)c1F (racemic) [Compound 31] ?
> 70%

What about CCCS(=O)(=O)Nc1cccc(-c2nc(C3CCN(C(=O)C4(C)CCN(C(=O)C5CCN(c6ccc(C7CCC(=O)NC7=O)cc6)CC5)CC4)CC3)sc2-c2ccnc(N)n2)c1F (racemic) [Compound 196] ?
> 70%

Now for another entry.
Please look up its Dmax: CCCS(=O)(=O)Nc1cccc(-c2cn(-c3ccc(C(=O)N4CCN(C(=O)C5CCN(c6ccc(C7CCC(=O)NC7=O)cc6)CC5)CC4)cc3)nc2-c2ccncc2)c1F (racemic) [Compound 14]
30 to 70%

###

- subject-of-test: BRAF G466V (Homo sapiens, UniProt P15056, G466V)
- Construct: Horizon Discovery (HCT-116 BRAF−/− cells); host or cells: HCT-116 BRAF−/− cells, clone 8, lentiviral transduction
- Sequence (P15056 whole entry G466V): as the sequence (P15056 whole entry V600E, the tested form may be a part) above, with G466V, E600V counted along it
- test-description: BRAF HiBiT degradation assay, C-terminal HiBiT-tagged BRAF G466V overexpressed in HCT-116 BRAF−/− cells (clone 8), Nano-Glo HiBiT Lytic assay
- Format: cell-based
- assay-conditions: BRAF G466V (Class 3), HCT-116 BRAF−/− cells; observed Dmax relative to DMSO control
// reported Dmax for each item listed

Please look up its Dmax: CCC(C)S(=O)(=O)Nc1cc(Cl)cc(-c2cn(-c3ccc(N4CCN(CC5CCN(c6ccc([C@H]7CCC(=O)NC7=O)cn6)CC5)CC4)cc3)nc2-c2ccncc2)c1F (mixture of isomers) [Compound 327]
> 70%

What about O=C1CCN(c2ccc(N3CCC(CN4CCN(c5ccc(-n6cc(-c7cc(F)cc(NS(=O)(=O)N8CC[C@@H](F)C8)c7F)c(-c7ccncc7)n6)nc5)CC4)CC3)cc2)C(=O)N1 [Compound 303] ?
30 to 70%

What about O=C1CC[C@H](c2ccc(N3CCC(CN4CCN(c5ccc(-n6cc(-c7cc(Cl)cc(NS(=O)(=O)N8CCCC8)c7F)c(-c7ccncc7)n6)cn5)CC4)CC3)cc2)C(=O)N1 [Compound 351] ?
> 70%

What about O=C1CCC(c2ccc(N3CCC(CN4CCN(c5ccc(-n6cc(-c7cc(Cl)cc(NS(=O)(=O)N8CCCC8)c7F)c(-c7ccncc7)n6)cc5)CC4)CC3)cc2F)C(=O)N1 (racemic) [Compound 348] ?
> 70%

Now for another entry.
Please look up its Dmax: O=C1CCN(c2ccc(N3CCC(CN4CCN(c5ccc(-n6cc(-c7cc(Cl)cc(NS(=O)(=O)N8CCCC8)c7F)c(-c7ccncc7)n6)cc5F)CC4)CC3)cc2)C(=O)N1 [Compound 361]
> 70%

Data origin, for the record: patent US20260317324A1
